Reference for the values: PubChem BioAssay (NCI)

Test system: SW-620 colon
assay-info: NCI-60 one-dose screen, 48 h (100 = growth as untreated, 0 = no growth, -100 = all killed)
assay-setup: 10 µM unless noted
The panel holds about 83,000 compounds, 20% with a hit somewhere; the sample as a whole holds those more often.
value-kind: growth (%)
Field format: number, assumed %, no unit text.

Inquiry: Given "[2H]C([2H])([2H])Oc1ccc(/C=C/C(=O)/C=C(/C=C/c2ccc(OC([2H])([2H])[2H])c(OC([2H])([2H])[2H])c2OC([2H])([2H])[2H])OB(F)F)c(OC([2H])([2H])[2H])c1OC([2H])([2H])[2H]" , state its recorded growth.
Reply text: 18.4

Inquiry: Field request: growth | item: "C=CCn1c(SCC(=O)Nc2ccc(C(=O)/C=C/c3ccc(Cl)cc3)cc2)nnc1-c1ccc(Cl)c(Cl)c1"
Reply text: 90.9

Inquiry: Reported growth for "Cc1nc2c(c(-c3ccccc3)n1)Cc1c(ccc3ccccc13)O2" : what is it?
Reply text: 96.4

Inquiry: Which measured growth value corresponds to "C=C(C)[C@@H]1CC[C@]2(COCCCNCCCN)CC[C@]3(C)[C@H](CC[C@@H]4[C@@]5(C)CC[C@H](OCCCN)C(C)(C)[C@@H]5CC[C@]43C)[C@@H]12" ?
Reply text: -80.8

Inquiry: I'd like to know its growth. The compound in question is "CCN(CC)CCCNC(=O)c1c2c(n3ccccc13)C(=O)c1ncccc1C2=O"
Reply text: -47

====

Tested on: OVCAR-4 ovarian
assay-info: NCI-60 one-dose screen, 48 h
assay-setup: 10 µM unless noted
The panel holds about 83,000 compounds, 20% with a hit somewhere; the sample as a whole holds those more often. Active and inactive are the calls of the source. How the source made its calls: active means growth percent below 10; inactive means the rest.
Hi! Could you answer with just one of these? active, inactive

Inquiry: Dear all, I need the recorded test outcome for "O=C1c2ccccc2-c2c1c1ccncc1c(=O)n2CCCn1ccnc1" , thank you.
Reply text: inactive

Inquiry: Would you mind telling me which call this test gave "COc1nc2ccccc2cc1/C=C1/C=C(c2ccccc2)NC1=O" ?
Reply text: inactive

Inquiry: What did this assay record as the result for "CCCNNC(=O)c1ccc(CNC(=O)/C=C/c2ccccc2)cc1" ?
Reply text: inactive

Inquiry: Returns: the outcome recorded for "CCOC(=O)c1c(C)c2c(n1Cc1ccccc1)CSc1cc(C#N)c(=O)[nH]c1-2" in this assay.
Reply text: inactive

Inquiry: Hi, do you know how Clc1nc(N2CCC[N+]3(CC2)CC[N+]2(CCCNCC2)CC3)nc(N2CCC[N+]3(CC2)CC[N+]2(CCCNCC2)CC3)n1 (centres undefined) came out in this test?
Reply text: inactive

Inquiry: State the result this test recorded for "CC1=NN(c2cccc(Cl)c2)C(=O)/C1=C\C=C\c1ccccc1" .
Reply text: active

Inquiry: GET /call?item= "O=C(Nc1ccc(Oc2cccc(F)c2)c(Cl)c1)c1cnccn1" returns the recorded outcome of this test.
Reply text: inactive

Inquiry: Identify the outcome logged in this assay for the molecule shown: CC1(C)CC(=O)C2=C(C1)OC(C(=O)c1ccccc1)C2c1cccc(Oc2ccccc2)c1 (centres undefined)
Reply text: inactive

Inquiry: In this assay, the call recorded for "COc1ccc2c(O)cc3c(c2c1)[C@H](CCl)CN3C(=O)c1cc2cc(NC(=O)CCN3CCOCC3)ccc2[se]1" was what?
Reply text: active

Inquiry: Recorded call for "CCOC(=O)CSc1nc2sc3c(c2c(=O)n1-c1ccccc1)CCCCC3" ?
Reply text: inactive

Inquiry: Which outcome was entered for the molecule "COc1cc(-c2ccc(-c3ccc(C(=N)N)s3)s2)cc(OC)c1OC" in this test?
Reply text: inactive

Inquiry: # lookup: test call for "COc1ccc(/C=C\c2cc(OC)c(OC)c(OC)c2)cc1OCC(=O)Nc1nc2ccccc2s1"
Reply text: inactive

Inquiry: Recorded call for "COC(=O)[C@H](C)NC(=O)[C@@H]1CCCN1C(=O)CNC(=O)[C@H](C)N" ?
Reply text: inactive

Inquiry: Hi team, can someone confirm the assay call for "O=C(Nc1ccc2[nH]ncc2c1)c1csc(Nc2ccccc2)n1" ?
Reply text: inactive

Inquiry: Name the outcome recorded for Nc1nc(N)c2c(n1)NC(c1cccc(Nc3ccnc4cc(C(F)(F)F)ccc34)c1)CC(c1ccc(Cl)cc1)=N2 (centres undefined) in the assay.
Reply text: inactive

Inquiry: Kindly provide the recorded test outcome for the following molecule: "CN(C)C(=O)OCc1ccc2c(Cl)cc(Cl)c(O)c2n1"
Reply text: inactive

Inquiry: Outcome? "CC1(C)CCC[C@]23C(=O)O[C@](O)(C(=O)C4=C[C@@](C)(/C=C/CCCc5ccc6ccc7cccc8ccc5c6c78)CC[C@@]42O)[C@@H]13"
Reply text: active

Inquiry: Hey, what did the test say about "O=C(/C=C/c1ccc(Cl)cc1)c1ccc(Nc2ccnc3cc(Cl)ccc23)cc1" ?
Reply text: inactive

Inquiry: // outcome(item) with item = "C=C1C(=O)O[C@H]2[C@H]1CC/C(CNC(=O)/C=C/c1cc(OC)c(OC)c(OC)c1)=C\CC[C@@]1(C)O[C@@H]21"
Reply text: inactive

Inquiry: So what was the verdict on "COC(=O)[C@@H](Cc1c[nH]c2ccccc12)NC(=O)[C@H](Cc1ccccc1)NCc1ccncc1" in this test?
Reply text: inactive

Inquiry: Short answer needed: outcome of this test for Cc1nc2sc(C(=O)Nc3ccccc3)c(N)c2cc1C(O)c1ccccc1 (centres undefined) ?
Reply text: inactive

Inquiry: Please indicate how the test categorized "Cn1cc(-c2csc(-c3cn(C)c4ccc(F)cc34)n2)c2cnccc21" .
Reply text: inactive

Inquiry: // outcome(item) with item = "CCCCCCCC/C=C\CCCCCCCCOc1ccc(CC(=O)NCC[N+]2(C)CCCC2)cc1"
Reply text: inactive

Inquiry: Outcome logged for "COc1ccccc1-c1nc2ccc3[nH]ncc3c2c2c1CCCC2" in this assay:
Reply text: inactive

Inquiry: Could you please tell me the result logged for "C/C(=C(\c1ccc(OCCCN(C)C)cc1)c1ccc(OC(=O)Cc2ccccc2)cc1)c1ccc(Cl)cc1" in this assay?
Reply text: inactive

Inquiry: What was the test verdict on CCOC(=O)C1=C(c2ccccc2)N=C2SC=C(c3cccc([N+](=O)[O-])c3)N2C1c1ccc(O)cc1 (centres undefined) ?
Reply text: inactive

Inquiry: Please let me know the test result on file for "COc1ccc(Nc2nc(Nc3cc(C)[nH]n3)c3cc(OC)c(OC)cc3n2)cc1" .
Reply text: active

Inquiry: How did this test come out for "O=C(Nc1ncc(Cc2ccc(Cl)cc2)s1)C1=NCCCCN1" ?
Reply text: inactive

Inquiry: # lookup: test call for "Nc1ncc(-c2ccc3ncnc(N4CCc5cc(F)c(Cl)cc54)c3c2)cc1C(F)(F)F"
Reply text: inactive

Inquiry: I would be grateful if you could indicate the recorded call for Cc1ccc(C2(C)NC(=O)N(CC(=O)Nc3cccc(C)c3)C2=O)cc1 (centres undefined) .
Reply text: inactive

Inquiry: // outcome(item) with item = "CCCc1cc(CCC)n2nc(N)nc2n1"
Reply text: inactive

Inquiry: What was the test verdict on "COc1ccc(C(=O)/C=C/c2ccc(Cl)cc2)cc1S(N)(=O)=O" ?
Reply text: inactive

Inquiry: Recorded test call requested for "C=CC(=O)Nc1ccc2ncnc(Nc3cccc(NS(=O)(=O)CCC)c3Cl)c2c1"
Reply text: inactive

Inquiry: Please indicate how the test categorized "COC(=O)c1nc(-c2ccccc2)oc1S(=O)(=O)N1CCN(c2ccc(OC)cc2)CC1" .
Reply text: inactive

Inquiry: For this molecule, state the assay outcome: "COc1cc(C(=O)n2nc(NCCCc3ccccc3)c3cc(N)ccc32)cc(OC)c1OC"
Reply text: inactive

Inquiry: For COc1ccc(C(c2cc(OC)c(OC)c(OC)c2)n2cncn2)cc1O (centres undefined) , which call appears in the assay record?
Reply text: inactive

Inquiry: Call for entry "O=C(Nc1ccccc1C(F)(F)F)C1=NCCCCN1" :
Reply text: inactive

Inquiry: // param item: "O=C(Nc1ccc(Cl)cc1)C1=NCCCCN1" ; yields the recorded call
Reply text: inactive

Inquiry: Answer briefly: the call reported for "O=C1/C(=C/c2ccccc2)COc2ccc(O)cc21" in this assay.
Reply text: inactive

====

System: SK-MEL-2 melanoma
assay-info: NCI-60 one-dose screen, 48 h
assay-setup: 10 µM unless noted
This is part of a sample that, as a whole, favours compounds with a hit. Of some 83,000 tested, about 20% had one in any assay. Calls of active or inactive are those of the source. How the source made its calls: active means growth percent below 10; inactive means the rest.
Allowed answers: 1.0 for active, 0.0 for inactive

Inquiry: Assay result, entry "CN(C)c1ccc(/C=C/C2=[N+](C)c3ccccc3C2(C)C)cc1" — outcome?
Reply text: 0.0

Inquiry: Identify the outcome logged in this assay for the molecule shown: "C=C(C)Cn1c(SCC(=O)c2cccs2)nc2sc3c(c2c1=O)CCCC3"
Reply text: 0.0

Inquiry: Could you kindly confirm the outcome this assay logged for "O=C(O)CCCN1C(=O)CSC1=S" ?
Reply text: 0.0

Inquiry: What did the test return for "O=C(NC1CCCCCC1)c1ccc2c(=O)n3c(nc2c1)CCCCC3" ?
Reply text: 0.0

Inquiry: What did the test return for "Cc1oc2ccc(O)c(CN3CCCCCC3)c2c1C(=O)Nc1ccc(C(F)(F)F)cc1" ?
Reply text: 0.0

Inquiry: Look up the recorded call for "CC(=O)[C@H]1CC[C@]2(C)[C@@H]1CC[C@@H]1[C@@]3(C)C/C(=C/c4cccnc4)C(=O)C(C)(C)[C@@H]3CC[C@]12C" in this test.
Reply text: 0.0

Inquiry: Hi team, can someone confirm the assay call for "CNC(=O)c1cc(Oc2ccc3nc(NC(=O)NC(C)C)sc3c2)ccn1" ?
Reply text: 0.0

Inquiry: For "O=C(/C=C/c1cccc([N+](=O)[O-])c1)c1ccc(Nc2nc(Nc3ccc(F)cc3)nc(Nc3ccc(Cl)cc3)n2)cc1" , which call appears in the assay record?
Reply text: 0.0

Inquiry: # lookup: test call for "C#C[C@]1(O)CC[C@H]2[C@@H]3CC=C4c5sc(-c6ccccc6)nc5CC[C@]4(C)[C@H]3CC[C@@]21C"
Reply text: 0.0

Inquiry: Can you look up the reported call for "CSc1nc(CC(C)C)c(C#N)c(=O)n1C" for me?
Reply text: 0.0

Inquiry: Query: recorded result category for "CCOC(=O)c1c(C)c2c(n1Cc1ccccc1)CSc1cc(C#N)c(=O)[nH]c1-2" in this test
Reply text: 0.0

Inquiry: Look up the recorded call for "O=C(/C=C/c1ccco1)c1ccc(Nc2ccnc3cc(Cl)ccc23)cc1" in this test.
Reply text: 0.0

Inquiry: What was the test verdict on "C=C(c1ccc(C(=O)O)c(F)c1)c1cc2c(cc1C)C(C)(C)C=CC2(C)C" ?
Reply text: 0.0

Inquiry: Hi, do you know how "Cc1c2cnccc2c(C)c2c1c1cc(C(=O)O)ccc1n2C" came out in this test?
Reply text: 1.0

Inquiry: Each molecule tested received a call. Report the one for "Cc1cc(=O)oc2cc(Oc3nc(-c4ccccc4)cn4c(-c5ccccc5)cnc34)ccc12" .
Reply text: 0.0

Inquiry: Which outcome was assigned to "CN(C)C(=O)OCc1ccc2c(Cl)cc(Cl)c(O)c2n1" in this test?
Reply text: 0.0

Inquiry: // param item: "CCCN1C2CCC1/C(=C\c1ccc(OC)cc1)C(=O)/C2=C/c1ccc(OC)cc1" ; yields the recorded call
Reply text: 0.0

Inquiry: // outcome(item) with item = O=c1n(C2OC(CO)C(O)C2O)ccc2nccn12 (centres undefined)
Reply text: 0.0

Inquiry: Give the logged outcome of this assay for the following molecule: CCN1C(=O)N(CC)C2C1NC(=S)N2/N=C/C=C/c1ccccc1 (centres undefined)
Reply text: 0.0

Inquiry: Hello, I am checking results. What call was entered for "COc1cc2ncnc(Nc3ccc(S(=O)(=O)Nc4cc(C)on4)cc3)c2cc1OCCCN1CCOCC1" ?
Reply text: 0.0

Inquiry: Record lookup: outcome of this test for C=C1CC[C@@H]2[C@](C)(COC(C)=O)[C@H](OC(C)=O)CC[C@@]2(C)[C@@H]1CC(Nc1ccc(S(=O)(=O)Nc2nccc(C)n2)cc1)C1=CCOC1=O (some centres undefined) ?
Reply text: 0.0

Inquiry: What did this assay record as the result for "c1ccc2c(-c3cnn4cc(-c5ccc(N6CCNCC6)cc5)cnc34)ccnc2c1" ?
Reply text: 1.0

Inquiry: Assay outcome for CCCC[N+]1(C)CCN=C1Cc1ccccc1 (centres undefined) : what was it?
Reply text: 0.0

Inquiry: Recorded call for "CC1(C)CC[C@]2(CO)CC[C@]3(C)C(=CC[C@@H]4[C@@]5(C)CCNCC(C)(C)[C@@H]5CC[C@]43C)[C@@H]2C1" ?
Reply text: 0.0

Inquiry: Dear all, I need the recorded test outcome for "N=C(N)c1ccc(-c2ccc(-c3ccccc3)s2)nc1" , thank you.
Reply text: 0.0

Inquiry: Could you kindly confirm the outcome this assay logged for "C1=C2CCCC3=Cc4ccccc4OC23Oc2ccccc21" ?
Reply text: 0.0

Inquiry: Field: outcome | Entry: "CC(=O)O[C@H]1CC[C@@]2(C)C(=CC[C@@H]3[C@@H]2CC[C@]2(C)C(Cl)=C(c4nc5ccc(Cl)cn5c4NC(C)(C)C)C[C@@H]32)C1"
Reply text: 0.0

Inquiry: Kindly provide the recorded test outcome for the following molecule: "Cc1nn(C)c2ncnc(Nc3ccccc3Br)c12"
Reply text: 0.0

Inquiry: Assay result, entry "COC(=O)c1c(C)nc(C)c2c1C(=O)C(Br)=C(NCCCCO)C2=O" — outcome?
Reply text: 0.0

Inquiry: Tell me the recorded outcome of this test for "COc1ccc(CNc2c3ccccc3nc3ccccc23)cc1OC" .
Reply text: 0.0

Inquiry: Hi team, can someone confirm the assay call for "C#CCOc1cccc(Nc2c(Cl)c(CCl)nc3ccc(Oc4ccccc4)cc23)c1" ?
Reply text: 0.0

Inquiry: Assay result, entry C#CC(F)(F)[C@]1(O)CCC2C3CCC4=CC(=O)CCC4=C3[C@@H](c3ccc(N(C)C)cc3)C[C@@]21C (some centres undefined) — outcome?
Reply text: 0.0

Inquiry: Entry "COc1ccc(-c2ccc(-c3ccc(C(=N)N)nc3)s2)cc1" : call = ?
Reply text: 0.0

Inquiry: Assay outcome for "COc1ccc(N/N=C/c2ccc3c(c2)Sc2ccccc2N3C)cc1" : what was it?
Reply text: 0.0

Inquiry: Please indicate how the test categorized COc1cc2c(c(OC)c1OC)CCC(c1cccc(NC(=O)c3cccc(Cl)c3)c1)O2 (centres undefined) .
Reply text: 0.0

Inquiry: Kindly provide the recorded test outcome for the following molecule: "C=CCn1c(SCC(=O)Nc2ccc(C(=O)/C=C/c3ccc(Cl)cc3)cc2)nnc1-c1ccc(Cl)c(Cl)c1"
Reply text: 0.0

Inquiry: Check the results log: what was the call for "COc1ccc(C(=O)/C=C/c2ccc(C)cc2)cc1S(N)(=O)=O" ?
Reply text: 0.0

Inquiry: What classification did "Oc1cccc2c1NCCC2" end up with in this test?
Reply text: 1.0

Inquiry: // return assay outcome for "O=C1c2c(c3c4cc(F)ccc4oc3c3[nH]c4ccccc4c23)C(=O)N1O"
Reply text: 0.0
